- assayed_target: MMP-24 (Homo sapiens, UniProt Q9Y5R2)
- Sequence (Q9Y5R2 156-645): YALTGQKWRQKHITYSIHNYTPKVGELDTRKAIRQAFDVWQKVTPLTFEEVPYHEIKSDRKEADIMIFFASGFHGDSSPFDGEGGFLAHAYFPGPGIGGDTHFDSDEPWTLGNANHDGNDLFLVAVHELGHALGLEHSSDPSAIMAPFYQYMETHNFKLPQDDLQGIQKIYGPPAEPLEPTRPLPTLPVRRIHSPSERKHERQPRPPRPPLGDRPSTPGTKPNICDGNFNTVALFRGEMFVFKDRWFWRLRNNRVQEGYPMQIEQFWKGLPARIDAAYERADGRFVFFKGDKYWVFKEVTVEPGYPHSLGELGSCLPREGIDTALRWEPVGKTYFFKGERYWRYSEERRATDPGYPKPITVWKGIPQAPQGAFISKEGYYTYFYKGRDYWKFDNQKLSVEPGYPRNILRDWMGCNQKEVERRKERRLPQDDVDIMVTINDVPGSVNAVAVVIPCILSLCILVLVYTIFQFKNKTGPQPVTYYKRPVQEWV
- assay_text: Cross-reactivity of Fabs with MMP-24 (Example 9)
- Assay type: biochemical
- Set-up: key: X: Do not inhibit MMP-16 or MMP-24 at [I] = 100 nM level; Y: partially inhibit at [I] = 100 nM level
- conditions: Fab, 100 nM final inhibitor concentration; 5 nM MMP-24
attribute_measured: MMP-24 (cross-reactivity, class symbol)

M0033-H07: human antibody (Fab, IgG) that binds and inhibits MMP-14; HC SEQ ID NO: 148, LC SEQ ID NO: 149 (antibody, V domains shown, Synthetically generated peptide) VH: EVQLLESGGGLVQPGGSLRLSCAASGFTFSVYGMVWVRQAPGKGLEWVSVISSSGGSTWYADSVKGRFTISRDNSKNTLYLQMNSLRAEDTALYYCARPFSRRYGVFDYWGQGTLVTVSS VL: QDIQMTQSPSSLSASVGDRVTITCRASQGIRNFLAWYQQKPGKVPKLLVFGASALQSGVPSRFSGSGSGTDFTLTISGLQPEDVATYYCQKYNGVPLTFGGGTKVEIK :: X
M0038-E06: human antibody (Fab, IgG) that binds and inhibits MMP-14; HC SEQ ID NO: 154, LC SEQ ID NO: 155 (antibody, V domains shown, Synthetically generated peptide) VH: EVQLLESGGGLVQPGGSLRLSCAASGFTFSPYVMHWVRQAPGKGLEWVSSISPSGGWTYYADSVKGRFTISRDNSKNTLYLQMNSLRAEDMAVYYCARGTGAYGMDVWGQGTTVTVSS VL: QDIQMTQSPGTLSLSPGDRATLSCGASQLVVSNYIAWYQQKPGQAPRLLMYAGSIRATGIPDRFSGSGSGTDFTLTISRLEPEDFAIYYCQQRSNWPWTFGQGTKVEIK :: X
M0038-F01: human antibody (Fab, IgG) that binds and inhibits MMP-14; HC SEQ ID NO: 156, LC SEQ ID NO: 157 (antibody, V domains shown, Synthetically generated peptide) VH: EVQLLESGGGLVQPGGSLRLSCAASGFTFSLYSMNWVRQAPGKGLEWVSSIYSSGGSTLYADSVKGRFTISRDNSKNTLYLQMNSLRAEDTAVYYCARGRAFDIWGQGTMVTVSS VL: QDIQMTQSPSSLSAFVGDKVTITCRASQSVGTYLNWYQQKAGKAPELLIYATSNLRSGVPSRFSGSGSGTDFTLTINTLQPEDFATYYCQQSYSIPRFTFGPGTKVDIK :: X
